Data credit: patent US20230000813A1

# Tested on: 20 isolates of Histophilus (H.) somni
# experiment: MIC50/MIC90, broth-microdilution, European respiratory tract isolates
# Format: cell-based
# Experimental: The in vitro activity of compounds against 20 isolates of Actinobacillus (A.) pleuropneumoniae, 20 of Bordetella (B.) bronchiseptica, 20 of Histophilus (H.) somni, 40 of Mannheimia (M.) haemolytica and 40 of Pasteurella (P.) multocida collected in different European countries were determined. […] The minimum inhibitory concentrations (MIC) of compounds according to the invention were determined by the broth-microdilution method according to CLSI document VET01-A4. […]
Quick list: MIC90 per entry.
property: MIC90 (µg/mL)

compound | operator | endpoint_value
C[C@@H](O)[C@H](NC(=O)c1ccc(C#Cc2ccc(CNCC(F)(F)F)cc2)cc1)C(=O)NO | ≤ | 0.016
CCCNCc1ccc(C#Cc2ccc(C(=O)N[C@H](C(=O)NO)[C@@H](C)O)cc2)cc1 | = | 0.25
CC(C)(N)C(NC(=O)c1ccc(C#Cc2ccc(CNCc3ccncc3)cc2)cc1)C(=O)NO (stereo not drawn) | = | 0.125
CC(C)(N)C(NC(=O)c1ccc(C#Cc2ccc(CNC3CC3)cc2)cc1)C(=O)NO (stereo not drawn) | = | 0.25
COCCNCc1ccc(C#Cc2ccc(C(=O)N[C@H](C(=O)NO)[C@@H](C)O)cc2)cc1 | = | 0.25
COCCNCc1ccc(C#Cc2ccc(C(=O)N[C@H](C(=O)NO)[C@@H](C)O)cc2)s1 | = | 0.063

----------
The entries below are paired with their reported MIC50.
# Tested on: 40 isolates of Pasteurella (P.) multocida
# experiment: MIC50/MIC90, broth-microdilution, European respiratory tract isolates
# Assay type: cell-based
property: MIC50 (µg/mL)

compound | target_desc | value_unit | operator | endpoint_value
COCCNCc1ccc(C#Cc2ccc(C(=O)N[C@H](C(=O)NO)[C@@H](C)O)cc2)s1 [C. 189] | 40 isolates of Pasteurella (P.) multocida | µg/mL | = | 0.032
CC(C)(N)C(NC(=O)c1ccc(C#Cc2ccc(CNCc3ccncc3)cc2)cc1)C(=O)NO (stereo not drawn) [C. 320] | 40 isolates of Pasteurella (P.) multocida | µg/mL | ≤ | 0.016
CC(C)(N)C(NC(=O)c1ccc(C#Cc2ccc(CNC3CC3)cc2)cc1)C(=O)NO (stereo not drawn) [C. 329] | 40 isolates of Pasteurella (P.) multocida | µg/mL | = | 0.032
COCCNCc1ccc(C#Cc2ccc(C(=O)N[C@H](C(=O)NO)[C@@H](C)O)cc2)cc1 [C. 231] | 40 isolates of Pasteurella (P.) multocida | µg/mL | ≤ | 0.016
CCCNCc1ccc(C#Cc2ccc(C(=O)N[C@H](C(=O)NO)[C@@H](C)O)cc2)cc1 [C. 251] | 40 isolates of Pasteurella (P.) multocida | µg/mL | = | 0.063
C[C@@H](O)[C@H](NC(=O)c1ccc(C#Cc2ccc(CNCC(F)(F)F)cc2)cc1)C(=O)NO [C. 467] | 40 isolates of Pasteurella (P.) multocida | µg/mL | ≤ | 0.016

----------
# System: Mannheimia haemolytica MH 10720 (154, BRD field isolate)
# experiment: MIC, broth-microdilution (CLSI VET01-A4)
# Type: cell-based
# condition_notes: Mannheimia haemolytica MH 10720; read-out: MIC MH 10720

compound | operator | MIC (µM)
CSC(C)(C)[C@H](NC(=O)c1ccc(C#Cc2ccc(CNCc3nccs3)nc2)cc1)C(=O)NO [Compound 744] | = | 0.4
CC(C)(N)C(NC(=O)c1ccc(C#Cc2ccc(CNCc3ccccn3)s2)cc1)C(=O)NO (centres unmarked) [Compound 534] | = | 0.2
C[C@@H](O)[C@H](NC(=O)c1ccc(C#Cc2ccc([N+](=O)[O-])cc2)cc1)C(=O)NO [Compound 243] | ≤ | 0.1
C[C@@H](O)[C@H](NC(=O)c1ccc(C#Cc2ccc(CNCC#N)cc2)cc1)C(=O)NO [C. 360] | = | 0.2
CC(C)(N)C(NC(=O)c1ccc(C#Cc2ccc(CNCc3cccnc3)s2)cc1)C(=O)NO (centres unmarked) [Compound 532] | = | 0.2
C=CCNCc1ccc(C#Cc2ccc(C(=O)NC(C(=O)NO)C(C)(C)N)cc2)s1 (centres unmarked) [C. 522] | = | 0.2
COc1ccc(CNCc2ccc(C#Cc3ccc(C(=O)NC(C(=O)NO)C(C)(C)N)cc3)s2)cc1 (centres unmarked) [Compound 526] | = | 0.2
CC(C)(N)C(NC(=O)c1ccc(C#Cc2ccc(CNCc3ccnc(Cl)c3)cc2)cc1)C(=O)NO (racemic) [Compound 313] | = | 0.4
